target: HIV integrase (recombinant integrase) (Human immunodeficiency virus type 1 group M subtype B, UniProt P04585); construct: HIV Integrase Assay: Strand Transfer Catalyzed by Recombinant Integrase; assay: HIV integrase assay: strand transfer catalyzed by recombinant integrase
measured.metric: IC50

# query.smiles, measurement
data = [
    ("CNC(=O)c1cc(F)ccc1CNC(=O)c1nc(N2CCCCS2(=O)=O)c2cccnc2c1O", "< 500 nM"),
]
